Where these numbers come from: PubChem BioAssay (NCATS)

Test: Cell Viability - LYMP1-002 - Assay at 40 hr (AID 994); note: nearly all actives have a fitted effect of over 60% in size
Conditions: LYMP1-002 lymphoblastoid cell viability; series mostly up to 92.2 µM
Inconclusive results are not listed. The source made the active and inactive calls. Calls come from the whole dose curve; as a rule, active = well fitted cell-killing curve with a large enough effect; inconclusive = small, poorly fitted or top-dose-only effect; inactive = flat fitted curve, though single readings scatter. Peptide text beside a SMILES is read from it.
Outcomes: t for active, f for inactive

# molecule, label.class
data = [
    ("CN(C)c1ccc2nc3ccc(=[N+](C)C)cc-3sc2c1", "t"),
    ("Cc1cc(O)c2c(c1)C(=O)c1cc(O)cc(O)c1C2=O", "f"),
    ("CCCCC(CC)COC(=O)C(C#N)=C(c1ccccc1)c1ccccc1 (stereo not drawn)", "f"),
    ("CC(=O)Nc1ccc(O)cc1", "f"),
    ("CS(=O)(=O)OCCCCOS(C)(=O)=O", "f"),
    ("COc1c2occc2cc2ccc(=O)oc12", "f"),
    ("CCCc1cc(=O)[nH]c(=S)[nH]1", "f"),
    ("COC(=O)[C@H](Cc1ccccc1)NC(=O)[C@@H](N)CC(=O)O (H-Asp-Phe-OMe)", "f"),
]

###

Experiment: Quantitative High-Throughput drug screen in 47 multiple myeloma cell lines against the NCATS MIPE library collection: ARD_JJKsccE7 cell viability assay (AID 1918929)
Details: ARD myeloma cell line viability, CellTiter-Glo, 48 h; series mostly up to 45.8 µM
Records with an inconclusive call do not appear. Calls of active or inactive are those of the source. Calls follow the shape of the dose curve; as a rule, active = well fitted cell-killing curve with a large enough effect; inconclusive = small, poorly fitted or top-dose-only effect, or effect the other way; inactive = no such curve, though single readings can be large or run the other way.
Outcomes: True (active), False (inactive)

# compound, label.class
data = [
    ("O=C(CCc1ccc(O)cc1)c1c(O)cc(O)cc1O", "True"),
    ("O=c1cc(N2CCOCC2)oc2c(-c3ccccc3)cccc12", "False"),
    ("CN(c1nccc(=O)[nH]1)C1CCN(c2nc3ccccc3n2Cc2ccc(F)cc2)CC1", "False"),
    ("CC(C)c1ccc2oc3nc(N)c(C(=O)O)cc3c(=O)c2c1", "False"),
    ("COc1cc(OC)c(C(=O)CCCN2CCCC2)c(OC)c1", "False"),
    ("O=C(NC(Cc1cc(=O)[nH]c2ccccc12)C(=O)O)c1ccc(Cl)cc1 (stereo unspecified)", "False"),
]

###

Molecular target: Calcium and integrin-binding protein 1 (Homo sapiens)
Assay: Primary qHTS for Identification of Calcium Integrin Binding Protein 1 (CIB1) Competitor (AID 1508620)
Details: CIB1-GST / FITC-alphaIIb peptide fluorescence polarization; series mostly up to 57.7 µM
Inconclusive results are not listed. Active and inactive are the calls of the source. Calls follow the shape of the dose curve; as a rule, active = well fitted inhibition curve with a large enough effect; inconclusive = small, poorly fitted or top-dose-only effect; inactive = flat fitted curve, though single readings scatter. Non-standard residues stand in square brackets, D forms with d. Residues, ends and D or L forms follow the SMILES beside them. Peptide text beside a SMILES is read from it. *: point of attachment. Sta = CC(C)C[C@H](N)[C@@H](O)CC(=O)O; Isovaleryl = CC(C)CC(=O)*
Outcomes: active, inactive

# compound, target.or.system, label.class
records = [
    ("COc1cc(C(C)=O)ccc1OCCCN1CCC(c2noc3cc(F)ccc23)CC1", "Calcium and integrin-binding protein 1 (Homo sapiens)", "inactive"),
    ("CCOC(=O)C(C)Oc1cccc2c(=O)n(CC(=O)Nc3ccc4c(c3)OCCO4)ccc12 (configuration not stated)", "Calcium and integrin-binding protein 1 (Homo sapiens)", "inactive"),
    ("Cc1ccc(Nc2nccc(N(C)c3ccc4c(C)n(C)nc4c3)n2)cc1S(N)(=O)=O", "Calcium and integrin-binding protein 1 (Homo sapiens)", "inactive"),
    ("C[C@H](Cn1cnc2c(N)ncnc21)OCP(=O)(O)O", "Calcium and integrin-binding protein 1 (Homo sapiens)", "inactive"),
    ("CCOC(=O)c1c(C)n(C)c2ccc(O)cc12", "Calcium and integrin-binding protein 1 (Homo sapiens)", "inactive"),
    ("N[C@@H](Cc1cc(I)c(Oc2cc(I)c(O)c(I)c2)c(I)c1)C(=O)O", "Calcium and integrin-binding protein 1 (Homo sapiens)", "inactive"),
    ("Cc1cccc(CN2CCN(C(c3ccccc3)c3ccc(Cl)cc3)CC2)c1 (configuration not stated)", "Calcium and integrin-binding protein 1 (Homo sapiens)", "inactive"),
    ("NNc1nncc2ccccc12", "Calcium and integrin-binding protein 1 (Homo sapiens)", "inactive"),
    ("O=C1NC(=O)C(c2ccccc2[N+](=O)[O-])=C1Nc1ccc(O)c(Cl)c1", "Calcium and integrin-binding protein 1 (Homo sapiens)", "inactive"),
    ("OC(CN1CCN(c2cccc(Cl)c2)CC1)C(c1ccccc1)c1ccccc1 (configuration not stated)", "Calcium and integrin-binding protein 1 (Homo sapiens)", "inactive"),
    ("O=C(NC(Cc1cc(=O)[nH]c2ccccc12)C(=O)O)c1ccc(Cl)cc1 (configuration not stated)", "Calcium and integrin-binding protein 1 (Homo sapiens)", "inactive"),
    ("CCN(CC)C(=S)SSC(=S)N(CC)CC", "Calcium and integrin-binding protein 1 (Homo sapiens)", "active"),
    ("CCC(C)(Oc1ccc(C2(c3ccc(OC(C)(CC)C(=O)O)cc3)CCCCC2)cc1)C(=O)O (configuration not stated)", "Calcium and integrin-binding protein 1 (Homo sapiens)", "inactive"),
    ("CC(C)CC(=O)N[C@H](C(=O)N[C@H](C(=O)N[C@@H](CC(C)C)[C@@H](O)CC(=O)N[C@@H](C)C(=O)N[C@@H](CC(C)C)[C@@H](O)CC(=O)O)C(C)C)C(C)C (Isovaleryl-VV[Sta]A[Sta]-OH)", "Calcium and integrin-binding protein 1 (Homo sapiens)", "inactive"),
    ("COc1ccc2cc([C@H](C)C(=O)O)ccc2c1", "Calcium and integrin-binding protein 1 (Homo sapiens)", "inactive"),
    ("Clc1ccc2c(N3CCN(CCCN4CCN(c5ccnc6cc(Cl)ccc56)CC4)CC3)ccnc2c1", "Calcium and integrin-binding protein 1 (Homo sapiens)", "inactive"),
    ("COC(=O)[C@H](Cc1ccccc1)NC(=O)[C@@H](N)CC(=O)O (H-Asp-Phe-OMe)", "Calcium and integrin-binding protein 1 (Homo sapiens)", "inactive"),
    ("CCCCN(CCCC)CCC(O)c1cc2c(Cl)cc(Cl)cc2c2cc(C(F)(F)F)ccc12 (configuration not stated)", "Calcium and integrin-binding protein 1 (Homo sapiens)", "inactive"),
    ("O=c1cc(N2CCOCC2)oc2c(-c3ccccc3)cccc12", "Calcium and integrin-binding protein 1 (Homo sapiens)", "inactive"),
    ("N=C(N)c1ccc2cc(OC(=O)c3ccc(N=C(N)N)cc3)ccc2c1", "Calcium and integrin-binding protein 1 (Homo sapiens)", "inactive"),
    ("Cc1cc2c(s1)Nc1ccccc1N=C2N1CCN(C)CC1", "Calcium and integrin-binding protein 1 (Homo sapiens)", "inactive"),
    ("CC(C)C[C@H](NC(=O)[C@H](Cc1ccccc1)NC(=O)c1cnccn1)B(O)O", "Calcium and integrin-binding protein 1 (Homo sapiens)", "inactive"),
    ("COc1cc(OC)c(C(=O)CCCN2CCCC2)c(OC)c1", "Calcium and integrin-binding protein 1 (Homo sapiens)", "inactive"),
    ("COc1c2occc2cc2ccc(=O)oc12", "Calcium and integrin-binding protein 1 (Homo sapiens)", "inactive"),
    ("CN(C)CCc1c[nH]c2ccc(Cn3cncn3)cc12", "Calcium and integrin-binding protein 1 (Homo sapiens)", "inactive"),
    ("C=C(c1ccc(C(=O)O)cc1)c1cc2c(cc1C)C(C)(C)CCC2(C)C", "Calcium and integrin-binding protein 1 (Homo sapiens)", "inactive"),
    ("CCc1nc(N)nc(N)c1-c1ccc(Cl)cc1", "Calcium and integrin-binding protein 1 (Homo sapiens)", "inactive"),
    ("Clc1ccc(C(Cn2ccnc2)OCc2c(Cl)cccc2Cl)c(Cl)c1 (configuration not stated)", "Calcium and integrin-binding protein 1 (Homo sapiens)", "inactive"),
    ("COc1cc2c(cc1OC)C1CC(=O)C(CC(C)C)CN1CC2 (configuration not stated)", "Calcium and integrin-binding protein 1 (Homo sapiens)", "inactive"),
    ("Oc1ccc(OCc2ccccc2)cc1", "Calcium and integrin-binding protein 1 (Homo sapiens)", "inactive"),
    ("Nc1cc(C(Cl)=C(Cl)Cl)c(S(N)(=O)=O)cc1S(N)(=O)=O", "Calcium and integrin-binding protein 1 (Homo sapiens)", "inactive"),
    ("CC(C)c1ccc2oc3nc(N)c(C(=O)O)cc3c(=O)c2c1", "Calcium and integrin-binding protein 1 (Homo sapiens)", "inactive"),
]
